pIC50: −log10 of the molar value.
The compounds below have reported pIC50 for cotton aphid vesicle-fusing ATPase (Aphis gossypii, UniProt A0A9P0IYS6).

compound	system	relation_qualifier	pIC50
Clc1ccc(C(c2ccc(Cl)cc2)n2cc[n+](CC(OCc3ccc(Cl)cc3Cl)c3ccc(Cl)cc3Cl)c2)cc1 (stereo not shown) [Calmidazolium Chloride]	cotton aphid vesicle-fusing ATPase (Aphis gossypii, UniProt A0A9P0IYS6)	=	5.33
CCCCCCCCCCCCC(=O)N1CCCCC1CNC(=O)[C@@H](N)CCCCN.Cl.Cl (stereo partly shown) [NPC15437 dihydrochloride]	cotton aphid vesicle-fusing ATPase (Aphis gossypii, UniProt A0A9P0IYS6)	=	4.72
Cc1ccc2c(c1)C(=O)C1(O)CCN(c3ccccc3)C1=N2 (racemic) [(±)-Blebbistatin]	cotton aphid vesicle-fusing ATPase (Aphis gossypii, UniProt A0A9P0IYS6)	<	4.00
Cc1ccc(C(=O)Nc2ccc(S(=O)(=O)O)c3cc(S(=O)(=O)O)cc(S(=O)(=O)O)c23)cc1NC(=O)c1cccc(NC(=O)Nc2cccc(C(=O)Nc3cc(C(=O)Nc4ccc(S(=O)(=O)O)c5cc(S(=O)(=O)O)cc(S(=O)(=O)O)c45)ccc3C)c2)c1	cotton aphid vesicle-fusing ATPase (Aphis gossypii, UniProt A0A9P0IYS6)	=	5.72
